target: JMJD6^Δ363–403 (Homo sapiens); assay: Standard MS-based hydroxylation assay (MALDI-TOF MS) of substrate peptides; type: biochemical; set-up: two more variants (aa 1–362, JMJD6^Δ363–403, and aa 1–343, JMJD6^Δ344–403); His6 (N); made in house; host or cells: Escherichia coli Rosetta2(DE3); conditions: standard hydroxylation assay conditions, substrate peptide varied 0–400 μM; mean ± S.D. (n = 3)
Measured Parameter: kcat

Lab note: sequence SRRRSRSKSPFR [RBM39_121–132, fragment of RBM39] tested on JMJD6^Δ363–403 (Homo sapiens); recorded kcat was 300 ± 23 × 10^−4 s^−1

Lab note: sequence SRDHKRSRSRERRRS [CROP311–325, fragment of SR protein CROP/LUC7L3] tested on JMJD6^Δ363–403 (Homo sapiens); recorded kcat was 191 ± 6.6 × 10^−4 s^−1

Lab note: sequence DRKSYKHRSKSRDR [CROP357–370, fragment of SR protein CROP/LUC7L3] tested on JMJD6^Δ363–403 (Homo sapiens); recorded kcat was 39.0 ± 3.6 × 10^−4 s^−1

Lab note: sequence RSPKRKLSRSPSPR [SRSF11_358–372, fragment of SRSF11] tested on JMJD6^Δ363–403 (Homo sapiens); recorded kcat was 174 ± 19 × 10^−4 s^−1

Lab note: sequence SKSRSRSHERKRS [RBM39_38–50, fragment of RBM39] tested on JMJD6^Δ363–403 (Homo sapiens); recorded kcat was 281 ± 15 × 10^−4 s^−1

Lab note: sequence RKHRSRSRDRRRSKS [CROP341–355, fragment of SR protein CROP/LUC7L3] tested on JMJD6^Δ363–403 (Homo sapiens); recorded kcat was 165 ± 12 × 10^−4 s^−1

Lab note: sequence RSKKRKKSKSRS [RBM39_31–42] tested on JMJD6^Δ363–403 (Homo sapiens); recorded kcat was 255 ± 15 × 10^−4 s^−1

Lab note: sequence RKRSRSKERRRS [RBM39_71–82, fragment of RBM39] tested on JMJD6^Δ363–403 (Homo sapiens); recorded kcat was 284 ± 11 × 10^−4 s^−1

----------
Would you mind telling me the reported kcat of each entry?
molecular target: JMJD6^Δ363–403 (Homo sapiens); assay: Standard MS-based hydroxylation assay (MALDI-TOF MS) of substrate peptides; format: biochemical; parameters: two more variants (aa 1–362, JMJD6^Δ363–403, and aa 1–343, JMJD6^Δ344–403); His6 (N); made in house; host or cells: Escherichia coli Rosetta2(DE3); conditions: standard hydroxylation assay conditions, substrate peptide varied 0–400 μM; mean ± S.D. (n = 3)

The recorded kcat for entry RDRRRRSKPLTRGAK [U2AF65_55–70, fragment of U2AF65] equals 43.0 ± 5.2 × 10^−4 s^−1

The recorded kcat for entry RSRSGTRSPKKPSR [SRSF11_347–360, fragment of SRSF11] equals 146 ± 9.6 × 10^−4 s^−1

The recorded kcat for entry RSKSPRRRRSHSR [SRSF11_286–298, fragment of SRSF11] equals 80.0 ± 3.9 × 10^−4 s^−1

The recorded kcat for entry ENRHRKRSHSRSRSR [U2AF65_21–35, fragment of the RS region of U2AF65] equals 40.0 ± 2.2 × 10^−4 s^−1

The recorded kcat for entry SRSRSRDRKRRSRSRDR [U2AF65_30–46, fragment of the RS region of U2AF65] equals 92.0 ± 7.0 × 10^−4 s^−1
